// provenance: paper PMC5540273

Test system: LTK;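 also: KINOMEscan kinase panel screen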
COND: concentration: 1 μM, replicates: in singlicate; n = 1
Each item that follows carries a reported %Inh.
MEASURED_PROPERTY: %Inh

>>> df
                                   compound  result
0  COc1cc2ncnc(Nc3ccc4nc(-c5ccccc5)[nH]c4c3)c2cc1OC.Cl [GW282450]     11%
1  O=C(Nc1n[nH]c2cc(-c3cccc(F)c3F)ccc12)C1CC1 [SB-733894]      0%
2  Cl.c1ccc(-c2n[nH]cc2-c2ccnc(-c3ccc(CN4CCOCC4)cc3)c2)nc1 [GW776245]     28%
3  Cc1cc(NCC(c2ccccc2)c2ccccc2)nc(NCc2ccc(C(F)(F)F)cc2)n1 [GW497681]      0%
4  COc1ccc(Nc2nccc(NCCNC(=O)Nc3ccccc3F)n2)cc1 [GSK1379901]      0%
5  O=C(O)COc1ncnc2cc(-c3ccc4[nH]ncc4c3)sc12   97.3%
6  Cc1cccc(-c2nc(Nc3ccc4[nH]ncc4c3)c3ccccc3n2)n1 [GW857175]      0%
7  O=C(Nc1n[nH]c2nc(-c3nccs3)c(Br)cc12)C1CCCC1 [SB-742609]      0%
8  CN1C(=O)C(Nc2ccc(Cl)c(C(=O)O)c2)=C(c2ccc(Cl)cc2)C1=O [SB-404290]      9%
